Molecular target: Growth hormone secretagogue receptor type 1 (Rattus norvegicus) (UniProt O08725)
Sequence (O08725 whole entry): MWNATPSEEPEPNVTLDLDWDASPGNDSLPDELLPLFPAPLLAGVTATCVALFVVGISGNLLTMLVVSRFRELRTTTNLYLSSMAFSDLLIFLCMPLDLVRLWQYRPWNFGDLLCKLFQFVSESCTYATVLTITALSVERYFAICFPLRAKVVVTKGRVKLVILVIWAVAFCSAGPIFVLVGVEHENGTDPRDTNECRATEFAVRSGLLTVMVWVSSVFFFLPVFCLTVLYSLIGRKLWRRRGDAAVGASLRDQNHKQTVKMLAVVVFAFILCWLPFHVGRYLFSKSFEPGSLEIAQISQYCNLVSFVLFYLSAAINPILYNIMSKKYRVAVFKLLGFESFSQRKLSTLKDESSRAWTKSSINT
Assay: Agonist activity at rat GHSR expressed in CHO cells assessed as increase in ghrelin-induced [3H]IP accumulation at 10 uM after 1 hr by scintillation counting relative to ghrelin
Assay type: functional, cell-based
ENDPOINT: Activity (%)

Record excerpt, results attached:
>>> data_value("Cc1ccccc1-c1ccc(C(=O)N2CCN(C(=O)c3ccc4cc[nH]c4c3)[C@@H](C)C2)cc1")
31
>>> data_value("C[C@H]1CN(C(=O)c2ccc(-c3ccccc3Cl)nc2)CCN1C(=O)c1ccc2cc[nH]c2c1")
14
>>> data_value("O=C(c1ccc(-c2ccccc2)cc1)N1CCN(C(=O)c2ccc3cc[nH]c3c2)CC1")
14

A. C[C@H]1CN(C(=O)c2ccc(-c3ccncc3)cc2)CCN1C(=O)c1ccc2cc[nH]c2c1
B. C[C@H]1CN(C(=O)c2ccc(-c3ccccc3F)cc2)CCN1C(=O)c1ccc2cc[nH]c2c1
Challenge: I would appreciate it if you could say which entry, A or B , has the lower Activity value. Write down the label of the entry you select.
Response given: A

1. C[C@H]1CN(C(=O)c2ccc(-c3ccccc3Cl)cn2)CCN1C(=O)c1ccc2cc[nH]c2c1
2. COc1ccc(-c2ccc(C(=O)N3CCN(C(=O)c4ccc5cc[nH]c5c4)[C@@H](C)C3)cc2)cc1
Challenge: I would appreciate it if you could say which entry, 1 or 2 , has the lower Activity value. Write down the label of the entry you select.
Response given: 1
(1: 18%, 2: 34%)

A. C[C@H]1CN(C(=O)c2ccc(-c3ccccc3)nc2)CCN1C(=O)c1ccc2cc[nH]c2c1
B. C[C@H]1CN(C(=O)c2ccc(-c3ccncc3F)c(F)c2)CCN1C(=O)c1ccc2cc[nH]c2c1
C. C[C@H]1CN(C(=O)c2ccc(-c3ccccc3C(F)(F)F)cc2)CCN1C(=O)c1ccc2cc[nH]c2c1
Challenge: Which order do these items take when sorted by rising Activity? List them. Answer by listing the labels in the order asked for.
Response given: B, A, C

1. C[C@H]1CN(C(=O)c2ccc(-c3cncs3)cc2)CCN1C(=O)c1ccc2cc[nH]c2c1
2. C[C@H]1CN(C(=O)c2ccc(-c3ccccc3)cc2)CCN1C(=O)c1ccc2cc[nH]c2c1
3. C[C@H]1CN(C(=O)c2ccc(-c3cn[nH]c3)cc2)CCN1C(=O)c1ccc2cc[nH]c2c1
4. C[C@H]1CN(C(=O)c2ccc(-c3ccncc3)c(F)c2)CCN1C(=O)c1ccc2cc[nH]c2c1
5. COc1cccc(-c2ccc(C(=O)N3CCN(C(=O)c4ccc5cc[nH]c5c4)[C@@H](C)C3)cc2)c1
Challenge: Which order do these items take when sorted by rising Activity? List them. Answer by listing the labels in the order asked for.
Response given: 4, 1, 3, 2, 5

1. Cc1noc(C)c1-c1ccc(C(=O)N2CCN(C(=O)c3ccc4cc[nH]c4c3)[C@@H](C)C2)cc1
2. Cc1ccccc1-c1ccc(C(=O)N2CCN(C(=O)c3ccc4cc[nH]c4c3)[C@@H](C)C2)cc1F
Challenge: Which shows the larger Activity value: 1 or 2 ? Write down the label of the entry you select.
Response given: 2

A. C[C@H]1CN(C(=O)c2csc(-c3ccccc3F)n2)CCN1C(=O)c1ccc2cc[nH]c2c1
B. C[C@H]1CN(C(=O)c2ccc(-c3ccncc3F)cc2)CCN1C(=O)c1ccc2cc[nH]c2c1
C. C[C@H]1CN(C(=O)c2ccc(-c3ccccc3Cl)cc2)CCN1C(=O)c1ccc2cc[nH]c2c1
Challenge: Which order do these items take when sorted by rising Activity? List them. Answer by listing the labels in the order asked for.
Response given: B, A, C
(B: -2%, A: 14%, C: 32%)

1. Cc1cc(-c2ccccc2)ccc1C(=O)N1CCN(C(=O)c2ccc3cc[nH]c3c2)[C@@H](C)C1
2. C[C@H]1CN(C(=O)c2ccc(-c3cccnc3)cc2)CCN1C(=O)c1ccc2cc[nH]c2c1
Challenge: I would appreciate it if you could say which entry, 1 or 2 , has the lower Activity value. Write down the label of the entry you select.
Response given: 2
(2: 21%, 1: 36%)

I. C[C@H]1CN(C(=O)c2ccc(-c3ccccc3)cc2F)CCN1C(=O)c1ccc2cc[nH]c2c1
II. C[C@H]1CN(C(=O)c2ccc(-c3ccccn3)cc2)CCN1C(=O)c1ccc2cc[nH]c2c1
Challenge: I would appreciate it if you could say which entry, I or II , has the lower Activity value. Write down the label of the entry you select.
Response given: II
(II: 12%, I: 43%)

* * *

Target: Voltage-gated inwardly rectifying potassium channel KCNH2 (Homo sapiens, UniProt Q12809)
Sequence (Q12809 whole entry): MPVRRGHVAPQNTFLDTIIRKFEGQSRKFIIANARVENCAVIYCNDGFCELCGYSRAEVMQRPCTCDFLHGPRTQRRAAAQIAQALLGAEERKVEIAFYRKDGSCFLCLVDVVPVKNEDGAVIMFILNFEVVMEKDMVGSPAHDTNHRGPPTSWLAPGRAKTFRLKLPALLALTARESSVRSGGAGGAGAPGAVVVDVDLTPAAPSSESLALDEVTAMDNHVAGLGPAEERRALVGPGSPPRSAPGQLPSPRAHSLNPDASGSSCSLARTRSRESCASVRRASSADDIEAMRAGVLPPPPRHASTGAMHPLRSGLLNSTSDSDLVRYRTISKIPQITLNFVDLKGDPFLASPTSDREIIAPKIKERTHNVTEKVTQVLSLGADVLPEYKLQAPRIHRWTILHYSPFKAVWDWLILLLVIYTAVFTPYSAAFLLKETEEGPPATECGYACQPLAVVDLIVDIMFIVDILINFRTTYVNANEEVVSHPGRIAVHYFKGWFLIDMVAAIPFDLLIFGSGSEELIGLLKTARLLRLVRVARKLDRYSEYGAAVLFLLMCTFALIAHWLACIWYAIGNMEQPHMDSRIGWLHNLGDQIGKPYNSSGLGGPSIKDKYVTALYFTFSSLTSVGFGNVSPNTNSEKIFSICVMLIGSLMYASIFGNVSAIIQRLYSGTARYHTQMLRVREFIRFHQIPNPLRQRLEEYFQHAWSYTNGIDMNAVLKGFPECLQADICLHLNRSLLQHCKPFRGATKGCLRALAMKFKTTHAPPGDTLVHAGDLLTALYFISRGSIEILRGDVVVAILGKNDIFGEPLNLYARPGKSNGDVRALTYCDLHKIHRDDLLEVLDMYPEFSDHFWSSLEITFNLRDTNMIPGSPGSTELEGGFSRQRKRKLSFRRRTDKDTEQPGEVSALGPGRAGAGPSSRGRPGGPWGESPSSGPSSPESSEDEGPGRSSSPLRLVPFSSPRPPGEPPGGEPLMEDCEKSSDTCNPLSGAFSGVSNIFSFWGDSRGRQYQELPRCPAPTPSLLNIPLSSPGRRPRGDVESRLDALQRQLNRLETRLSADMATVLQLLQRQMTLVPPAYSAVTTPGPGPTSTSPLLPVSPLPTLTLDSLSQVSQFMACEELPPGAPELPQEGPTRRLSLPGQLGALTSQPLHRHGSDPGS
pIC50: −log10 of the molar value.
ENDPOINT: pIC50

Param item: "C[C@H]1CN(C(=O)c2ccc(-c3ccccc3F)cc2)CCN1C(=O)c1ccc2cc[nH]c2c1" ; param system: Voltage-gated inwardly rectifying potassium channel KCNH2 (Homo sapiens, UniProt Q12809); output pIC50: < 5.00

* * *

Assay: Volume of distribution at steady state in mouse at 0.5 mg/kg, iv
Assay type: ADME, organism-based
Parameters: dose 0.5 mg/kg, route intravenous
Conditions: in vivo, read-out: Vdss
ENDPOINT: Vd (L/kg)
Report only the number, with the unit L/kg understood.

molecule "C[C@H]1CN(C(=O)c2ccc(-c3ccncc3)c(F)c2)CCN1C(=O)c1ccc2cc[nH]c2c1" , Vd observed: 1.4

* * *

Experiment: Fraction unbound in mouse plasma
Assay type: ADME, cell-free
ENDPOINT: fraction unbound
Please state the value as a number alone, without comment.

compound "C[C@H]1CN(C(=O)c2ccc(-c3ccncc3)c(F)c2)CCN1C(=O)c1ccc2cc[nH]c2c1" , fraction unbound observed: 0.04

* * *

Target: Growth hormone secretagogue receptor type 1 (Homo sapiens, UniProt Q92847)
Sequence (Q92847 whole entry): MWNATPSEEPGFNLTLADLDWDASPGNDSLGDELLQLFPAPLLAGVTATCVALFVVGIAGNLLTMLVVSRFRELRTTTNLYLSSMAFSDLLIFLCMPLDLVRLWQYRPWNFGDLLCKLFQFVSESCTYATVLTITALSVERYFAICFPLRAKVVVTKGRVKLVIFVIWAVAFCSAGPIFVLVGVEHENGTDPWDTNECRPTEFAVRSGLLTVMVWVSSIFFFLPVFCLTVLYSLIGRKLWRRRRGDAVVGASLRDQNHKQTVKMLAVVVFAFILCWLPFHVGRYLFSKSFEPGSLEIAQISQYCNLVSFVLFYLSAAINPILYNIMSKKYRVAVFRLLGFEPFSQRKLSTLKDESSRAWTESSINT
Experiment: Agonist activity at human GHSR expressed in CHO cells assessed as increase in ghrelin-induced [3H]IP accumulation at 10 uM after 1 hr by scintillation counting relative to ghrelin
Assay type: functional, cell-based
ENDPOINT: Activity (%)

>>> data_value("COc1cccc(-c2ccc(C(=O)N3CCN(C(=O)c4ccc5cc[nH]c5c4)[C@@H](C)C3)cc2)c1")
45
>>> data_value("C[C@H]1CN(C(=O)c2ccc(-c3ccccc3)cc2)CCN1C(=O)c1ccc2cc[nH]c2c1")
29
>>> data_value("COc1ccc(-c2ccc(C(=O)N3CCN(C(=O)c4ccc5cc[nH]c5c4)[C@@H](C)C3)cc2)cc1")
33
>>> data_value("C[C@H]1CN(C(=O)c2ccc(-c3ccccc3F)cc2)CCN1C(=O)c1ccc2cc[nH]c2c1")
33
>>> data_value("O=C(c1ccc(-c2ccccc2)cc1)N1CCN(C(=O)c2ccc3cc[nH]c3c2)CC1")
18

I. C[C@H]1CN(C(=O)c2ccc(-c3ccccc3Cl)cc2)CCN1C(=O)c1ccc2cc[nH]c2c1
II. C[C@H]1CN(C(=O)c2ccc(-c3ccccc3C(F)(F)F)cc2)CCN1C(=O)c1ccc2cc[nH]c2c1
Challenge: I would appreciate it if you could say which entry, I or II , has the lower Activity value. Write down the label of the entry you select.
Response given: II

* * *

Experiment: Metabolic stability in rat liver microsomes assessed as compound remaining at 1 uM after 30 mins
Type: ADME, Microsome
Conditions: read-out: Stability
ENDPOINT: remaining at 0.5 h, 1 µM (%)
Report only the number, with the unit % understood.

compound "C[C@H]1CN(C(=O)c2ccc(-c3ccncc3)c(F)c2)CCN1C(=O)c1ccc2cc[nH]c2c1" , remaining at 0.5 h, 1 µM observed: 78

* * *

Target: Growth hormone secretagogue receptor type 1 (Homo sapiens, UniProt Q92847)
Assay: Antagonist activity at human GHSR expressed in CHOK1 cells assessed as inhibition of ghrelin-induced intracellular calcium flux by aequorin flash luminescence assay
ENDPOINT: IC50 (nM)

>>> data_value("COc1ccc(-c2ccc(C(=O)N3CCN(C(=O)c4ccc5cc[nH]c5c4)[C@@H](C)C3)cc2)cc1")
7
>>> data_value("Cc1cc(-c2ccccc2)ccc1C(=O)N1CCN(C(=O)c2ccc3cc[nH]c3c2)[C@@H](C)C1")
14.3
>>> data_value("C[C@H]1CN(C(=O)c2ccc(-c3cccc(F)c3)cc2)CCN1C(=O)c1ccc2cc[nH]c2c1")
147
>>> data_value("COc1ccccc1-c1ccc(C(=O)N2CCN(C(=O)c3ccc4cc[nH]c4c3)[C@@H](C)C2)cc1")
26
>>> data_value("C[C@H]1CN(C(=O)c2ccc(-c3ccncc3)cc2)CCN1C(=O)c1ccc2cc[nH]c2c1")
12.7

1. C[C@H]1CN(C(=O)c2ccc(-c3ccccc3C(F)(F)F)cc2)CCN1C(=O)c1ccc2cc[nH]c2c1
2. C[C@H]1CN(C(=O)c2ccc(-c3ccccc3F)cc2)CCN1C(=O)c1ccc2cc[nH]c2c1
3. C[C@H]1CN(C(=O)c2ccc(-c3ccccc3Cl)nc2)CCN1C(=O)c1ccc2cc[nH]c2c1
Challenge: Which order do these items take when sorted by rising IC50? List them. Answer by listing the labels in the order asked for.
Response given: 1, 2, 3

FYI, the data here is from ChEMBL document CHEMBL1154934.
